# Target system: Recombinant human renin (Homo sapiens)
# Sequence (P00797 67-406): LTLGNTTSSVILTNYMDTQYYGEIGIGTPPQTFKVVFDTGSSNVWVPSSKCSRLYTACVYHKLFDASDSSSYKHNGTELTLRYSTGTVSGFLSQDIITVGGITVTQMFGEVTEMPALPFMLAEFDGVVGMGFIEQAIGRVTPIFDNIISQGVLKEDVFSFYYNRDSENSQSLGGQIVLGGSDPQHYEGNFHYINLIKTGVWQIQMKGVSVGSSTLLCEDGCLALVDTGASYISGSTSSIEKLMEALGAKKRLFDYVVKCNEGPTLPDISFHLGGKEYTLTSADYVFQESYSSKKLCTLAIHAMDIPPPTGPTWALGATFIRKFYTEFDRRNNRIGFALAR
# Protocol notes: Inhibitory activity against human renin (fluorogenic peptide substrate)
# Type: biochemical
# Recorded conditions: 50% inhibitory concentration (IC50) against human renin, 37° C. for 1 hour

[
  {
    "Input smiles": "CCc1nc([C@@H](C)N(C(=O)[C@H]2CNCCO2)C2CC2)cc2c1c(C)cn2CCCOC",
    "IC50 [nM]": 0.8
  },
  {
    "Input smiles": "COC(=O)NCCCc1cc([C@@H](C)N(C(=O)[C@H]2CNCCO2)C2CC2)sc1C#CC(C)(C)O",
    "IC50 [nM]": 1
  },
  {
    "Input smiles": "COC[C@H]1CO[C@@H](C(=O)N(C2CC2)[C@@H](C)c2cn(CCCNC(=O)OC)c(C3CCOCC3)n2)CN1",
    "IC50 [nM]": 1.5
  },
  {
    "Input smiles": "COC(=O)NCCCn1cc([C@@H](C)N(C(=O)[C@H]2CNCCO2)C2CC2)nc1-c1ccc(F)cc1",
    "IC50 [nM]": 0.4
  }
]
